- assay_target: Potassium-transporting ATPase (Canis familiaris)
- protocol_description: In vitro inhibitory activity against H+/K+ ATPase prepared from canine fundic mucosa
observation_type: IC50 (µM)

{"columns": ["compound", "output_unit", "value_reported"],
 "data": [
  ["COc1cc(Cl)c(C)c(C[S+]([O-])c2nc3ccccc3[nH]2)c1N (stereo not given)", "µM", 2.7],
  ["Nc1ccccc1C[S+]([O-])c1nc2cc(C(F)(F)F)ccc2[nH]1 (stereo not given)", "µM", 4.4]
]}

[A] Cc1cccc(N)c1C[S+]([O-])c1nc2ccccc2[nH]1 (stereo not given)
[B] Cc1cc(Cl)cc(C[S+]([O-])c2nc3ccccc3[nH]2)c1N (stereo not given)
# input Could you point out whether the larger IC50 belongs to A or to B ? Answer with the label corresponding to your selection.
# output B

[1] COc1c(C)cc(N)c(C[S+]([O-])c2nc3ccccc3[nH]2)c1C (stereo not given)
[2] COc1ccc(N)c(C[S+]([O-])c2nc3ccccc3[nH]2)c1 (stereo not given)
# input Identify the entry with the smaller IC50: 1 or 2 . Answer with the label corresponding to your selection.
# output 1

[P] Cc1ccc(C[S+]([O-])c2nc3ccccc3[nH]2)c(N)c1C (stereo not given)
[Q] Cc1cc2nc([S+]([O-])Cc3ccccc3N)[nH]c2cc1C (stereo not given)
[R] Cc1ccc(N)c(C[S+]([O-])c2nc3ccccc3[nH]2)c1 (stereo not given)
# input Sort low-to-high on IC50, please. Reply: labels, ordered per the request.
# output P, R, Q

[1] Cc1cc(C)c(N)c(C[S+]([O-])c2nc3ccccc3[nH]2)c1 (stereo not given)
[2] Cc1ccc2[nH]c([S+]([O-])Cc3ccccc3N)nc2c1 (stereo not given)
# input Identify the entry with the smaller IC50: 1 or 2 . Answer with the label corresponding to your selection.
# output 1

----------
Quick reference for pIC50 among some compounds
- assay_target: Potassium-transporting ATPase (Canis familiaris)
- protocol_description: In vitro inhibitory activity against H+/K+ ATPase prepared from canine fundic mucosa
pIC50: −log10 of the molar value.

{"columns": ["compound", "pIC50"],
 "data": [
  ["Nc1ccc(Cl)cc1C[S+]([O-])c1nc2ccccc2[nH]1 (stereo not drawn)", "< 4.00"],
  ["Nc1ccc(C(F)(F)F)cc1C[S+]([O-])c1nc2ccccc2[nH]1 (stereo not drawn)", "< 4.00"]
]}

As a next step, examine the compound that follows.
# input If you can, please state the reported pIC50 value of COC(=O)c1cccc(C[S+]([O-])c2nc3ccccc3[nH]2)c1N (stereo not drawn) .
# output < 4.00

----------
- assay_target: Potassium-transporting ATPase (Canis familiaris)
- protocol_description: In vitro inhibitory activity against H+/K+ ATPase prepared from canine fundic mucosa
observation_type: IC50 (µM)

Here's what some known entries look like.
{"columns": ["compound", "observation_type", "value_reported"],
 "data": [
  ["CCOc1ccc2[nH]c([S+]([O-])Cc3ccccc3N)nc2c1 (centres undefined)", "IC50", 24],
  ["COc1cccc(C[S+]([O-])c2nc3cc(C(F)(F)F)ccc3[nH]2)c1N (centres undefined)", "IC50", 8.5],
  ["Cc1cc(N)c(C[S+]([O-])c2nc3ccccc3[nH]2)c(C)c1C (centres undefined)", "IC50", 10],
  ["Cc1ccc(C)c(C[S+]([O-])c2nc3ccccc3[nH]2)c1N (centres undefined)", "IC50", 0.8],
  ["Cc1cccc2[nH]c([S+]([O-])Cc3ccccc3N)nc12 (centres undefined)", "IC50", 7.4],
  ["CCc1cccc(C[S+]([O-])c2nc3ccccc3[nH]2)c1N (centres undefined)", "IC50", 3.9]
]}

[A] COc1ccc2[nH]c([S+]([O-])Cc3cccc(C)c3N)nc2c1 (centres undefined)
[B] CCc1ccc(N)c(C[S+]([O-])c2nc3ccccc3[nH]2)c1 (centres undefined)
# input Could you point out whether the larger IC50 belongs to A or to B ? Answer with the label corresponding to your selection.
# output A

[P] CN(C)c1ccccc1C[S+]([O-])c1nc2ccccc2[nH]1 (centres undefined)
[Q] Cc1c(Cl)ccc(C[S+]([O-])c2nc3ccccc3[nH]2)c1N (centres undefined)
# input Could you point out whether the larger IC50 belongs to P or to Q ? Answer with the label corresponding to your selection.
# output Q
(Q: 6.4 µM, P: 0.7 µM)

Data credit: ChEMBL document CHEMBL1124135
